Biological target: hCB1 receptor (Homo sapiens)
Construct: purchased Perkin Elmer; host or cells: HEK293-EBNA
Sequence (P21554 whole entry): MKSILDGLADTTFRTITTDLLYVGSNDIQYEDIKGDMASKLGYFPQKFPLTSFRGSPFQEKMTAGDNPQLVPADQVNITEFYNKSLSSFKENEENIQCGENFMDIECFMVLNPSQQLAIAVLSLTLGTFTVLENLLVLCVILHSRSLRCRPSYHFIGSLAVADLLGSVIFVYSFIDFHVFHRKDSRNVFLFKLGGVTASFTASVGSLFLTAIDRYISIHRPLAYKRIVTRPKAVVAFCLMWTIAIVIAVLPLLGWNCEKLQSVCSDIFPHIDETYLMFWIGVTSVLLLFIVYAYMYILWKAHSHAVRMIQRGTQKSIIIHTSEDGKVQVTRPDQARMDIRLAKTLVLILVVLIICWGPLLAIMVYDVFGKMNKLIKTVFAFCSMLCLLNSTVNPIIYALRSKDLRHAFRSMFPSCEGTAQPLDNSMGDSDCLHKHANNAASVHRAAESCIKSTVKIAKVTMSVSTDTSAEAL
Test: competitive ligand binding assay with [3H]-CP-55,940 on hCB1 membrane preparations of HEK293-EBNA cells
Below, each entry is listed with its recorded Ki.
MEASURED PROPERTY: Ki (pM)

- COC(=O)[C@@H](NC(=O)c1cn(CC2CCCCC2)c2cc(Cl)ccc12)C(C)(C)C: 770
- COC(=O)[C@@H](NC(=O)c1c(Cl)n(CC2CCCCC2)c2ccccc12)C(C)(C)C: 580
- COC(=O)[C@@H](NC(=O)c1cn(CC2CCCCC2)c2cccc(Cl)c12)C(C)(C)C: 6550
- COC(=O)[C@@H](NC(=O)c1cn(CC2CCCCC2)c2c(Cl)cccc12)C(C)(C)C: 700
